Test system: NO/cGMP signaling
assay.protocol: cGMP signaling (NO-stimulated cGMP, immunoassay)
Assay type: cell-based, human
measurement.context: concentration for 50% inhibition of effect
Peptide text beside a SMILES is read from it.
For each record, write down the corresponding IC50.

- compound: "CC[C@H](C)[C@H](N)C(=O)NCC(=O)N[C@@H](Cc1c[nH]c2ccccc12)C(=O)N[C@@H](C)C(=O)N[C@@H](CC(=O)O)C(=O)N[C@@H](Cc1ccccc1)C(=O)N[C@H](C(=O)N[C@@H](C)C(=O)N[C@@H](Cc1ccc(O)cc1)C(=O)N[C@@H](CCCNC(=N)N)C(=O)O)[C@@H](C)O [compound 37413, IGWADFTAYR] (H-IGWADFTAYR-OH)"
  IC50: "> 10 µM"
- compound: "CC[C@H](C)[C@H](N)C(=O)NCC(=O)N[C@@H](Cc1ccc(O)cc1)C(=O)N[C@@H](CCCCN)C(=O)N[C@@H](CC(=O)O)C(=O)N[C@@H](Cc1ccccc1)C(=O)N[C@H](C(=O)N[C@@H](C)C(=O)N[C@@H](Cc1ccc(O)cc1)C(=O)N[C@@H](CCCNC(=N)N)C(=O)O)[C@@H](C)O [compound 37417, IGYKDFTAYR] (H-IGYKDFTAYR-OH)"
  IC50: "~0.1 µM"

Data point: CC[C@H](C)[C@H](N)C(=O)NCC(=O)N[C@@H](Cc1c[nH]c2ccccc12)C(=O)N[C@@H](CCCCN)C(=O)N[C@@H](CC(=O)O)C(=O)N[C@@H](Cc1ccccc1)C(=O)N[C@H](C(=O)N[C@@H](C)C(=O)N[C@@H](C)C(=O)N[C@@H](CCCNC(=N)N)C(=O)O)[C@@H](C)O [compound 37555, IGWKDFTAAR] (H-IGWKDFTAAR-OH) ; IC50 = ~10 µM
